# Test system: THP-1 Lucia ISG cells
# Assay explanation: ISG-LUC activation assay (ISRE-luciferase assay)
# Format: cell-based
# Condition: Homo sapiens, THP1-Lucia ISG; THP-1 Lucia ISG reporter cells, 24 hours; score based upon potency and efficacy relative to reference compound; read-out: ISG-LUC activation assay score
Collected EC50 values appear next to each entry.

| Compound | Target system | EC50 |
| --- | --- | --- |
| C#Cc1cc(NC(=O)c2ccc3nnnn3n2)c(C(=O)O)cc1F | THP-1 Lucia ISG cells | < 3 µM |
| COc1cc2nc(-c3ccc4nnnn4n3)oc(=O)c2cc1F | THP-1 Lucia ISG cells | < 0.9 µM |
| C#Cc1cc(NC(=O)c2cc(N)n3ncnc3n2)c(C(=O)O)cc1F | THP-1 Lucia ISG cells | > 1 µM |
| C#Cc1cc(NC(=O)c2ccn3c([S+](C)[O-])nnc3n2)c(C(=O)O)cc1F (stereo not drawn) | THP-1 Lucia ISG cells | > 20 µM |

## Task Could you tell me which EC50 is on file for C#Cc1cc(NC(=O)c2ccc3c(C#N)nnn3n2)c(C(=O)OC)cc1F ?
## Result > 1 µM

## Task Record request: EC50 value, item C#Cc1cc(NC(=O)c2cc(N)c3nnnn3n2)c(C(=O)O[C@@H]2CSSC[C@H]2O)cc1F
## Result > 1 µM

## Task Look up EC50: COC(=O)c1cc(F)c(F)cc1NC(=O)N1CCn2cncc2C1
## Result > 1 µM

## Task Any idea what EC50 was measured for N#Cc1cc(NC(=O)c2cc(N)c3nnnn3n2)c(C(=O)O)cc1F ?
## Result > 1 µM

## Task Requested read-out: EC50. Entry: Nc1cc(C(=O)Nc2cc3ccccc3cc2C(=O)O)nn2nnnc12
## Result > 20 µM
